# assay comment: SU-DIPG-VI glioma cell viability, MIPE4.0 library, CellTiter-Glo luminescence, qHTS (AID 1347066);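 further: cells exposed to compound for 48 hours before readout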
# experimental conditions: CellTiter-Glo ATP luminescence
Results filed as inconclusive are left out. Activity calls are given as the source filed them. Cut-off not given; nearly all actives show AC50 up to about 30 µM.
Mark one answer only. Choices: active, inactive

Some entries whose results are on file:
c1ccc2c(Cc3c[nH]c4ccccc34)c[nH]c2c1 = inactive
CCCCCCCCCCCCCCCCCCCCCCO = inactive
CCN(CC)CCNC(=O)c1c(C)[nH]c(/C=C2\C(=O)Nc3ccc(F)cc32)c1C = active
CC/C(=C(\c1ccccc1)c1ccc(OCCN(C)C)cc1)c1ccccc1 = active
O=C(CCc1ccc(O)cc1)c1c(O)cc(O)cc1O[C@@H]1O[C@H](CO)[C@@H](O)[C@H](O)[C@H]1O = inactive

What is the recorded call for this compound in the test? NC(=O)Cc1cccc(C(=O)c2ccccc2)c1N
inactive

Record lookup: outcome of this test for CC1(C)[C@@H](O)CC[C@]2(C)[C@H]3C(=O)C=C4[C@@H]5C[C@@](C)(C(=O)O)CC[C@]5(C)CC[C@@]4(C)[C@]3(C)CC[C@@H]12 ?
inactive

----------
Reported inhibition by item:
# experimental target: 6-phosphogluconate dehydrogenase, decarboxylating (Homo sapiens) (UniProt P52209)
# Sequence (P52209 whole entry, looked up): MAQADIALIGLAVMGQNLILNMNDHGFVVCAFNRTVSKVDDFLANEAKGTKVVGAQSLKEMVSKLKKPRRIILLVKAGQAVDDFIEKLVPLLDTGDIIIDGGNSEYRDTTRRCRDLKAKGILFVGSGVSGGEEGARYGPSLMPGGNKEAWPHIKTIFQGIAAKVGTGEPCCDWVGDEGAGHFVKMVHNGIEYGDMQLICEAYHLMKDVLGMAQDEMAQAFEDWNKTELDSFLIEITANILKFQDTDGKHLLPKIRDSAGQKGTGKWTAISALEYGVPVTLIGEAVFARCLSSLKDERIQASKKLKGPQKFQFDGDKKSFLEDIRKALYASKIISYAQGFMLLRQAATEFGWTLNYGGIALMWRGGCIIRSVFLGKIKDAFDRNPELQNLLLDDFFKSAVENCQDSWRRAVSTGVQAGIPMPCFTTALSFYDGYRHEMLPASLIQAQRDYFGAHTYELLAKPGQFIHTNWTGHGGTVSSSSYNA
# assay comment: 6PGD enzyme inhibitors, primary screen, biochemical, human, recombinant enzyme, NADPH absorbance (AID 1159550)
# experimental conditions: recombinant 6PGD, NADPH absorbance 341 nm; at 10 µM; stronger effect = higher value
Activity calls are given as the source filed them.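 The calls were made as follows: active = at least 20% inhibition of 6-phosphogluconate dehydrogenase activity; inactive = the rest.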

Examples with their reported inhibition follow.
CC[C@@H](CC[C@@H](C)[C@H]1CC[C@H]2[C@@H]3CC=C4C[C@@H](O)CC[C@]4(C)[C@H]3CC[C@]12C)C(C)C = 10.4% (inactive)
C/C1=C\CCC(=O)C2CC(C)(C)C2CC1 (centres undefined) = -1.45% (inactive)
NCCCS(=O)(=O)O = 6.14% (inactive)
CC(C)=CCc1c2c(c3occ(-c4ccc(O)c(O)c4)c(=O)c3c1O)C=CC(C)(C)O2 = 10.7% (inactive)
NC1(C(=O)O)CCCC1 = -12.6% (inactive)

Query: inhibition; subject: CC1=C(/C=C/C(C)=C/C=C/C(C)=C\C(=O)O)C(C)(C)CCC1
16.8% (inactive)

----------
# assay comment: stimulators of nuclear beta-catenin in C2C12, primary screen, imaging, WNT3A-conditioned medium, mouse C2C12, NPC library (AID 1117326)
# experimental conditions: stimulation, at 2 µM, stronger effect = higher value
attribute measured: nuclear beta-catenin stimulation (%)
Hi! Could you send only the number? It should be in %, unit omitted.

// solved cases for nuclear beta-catenin stimulation follow
CC(=O)O[C@@]12CO[C@@H]1C[C@H](O)[C@@]1(C)C(=O)[C@H](O)C3=C(C)[C@@H](OC(=O)[C@H](O)[C@@H](NC(=O)OC(C)(C)C)c4ccccc4)C[C@@](O)([C@@H](OC(=O)c4ccccc4)[C@H]21)C3(C)C = 49.3
O=C(NOCC1CC1)c1ccc(F)c(F)c1Nc1ccc(I)cc1Cl = 1.7
COc1cc(C(=O)N2CCOCC2)cc(OC)c1OC = -0.7
CN(C(=O)C(Cl)Cl)c1ccc(OC(=O)c2ccco2)cc1 = 2.6

Requested read-out: nuclear beta-catenin stimulation. Entry: CC(=O)[C@H]1CC[C@H]2[C@@H]3CC=C4C[C@@H](O)CC[C@]4(C)[C@H]3CC[C@]12C
1.6

Record request: nuclear beta-catenin stimulation value, item CCOC(=O)c1ccc(C#Cc2ccc3c(c2)C(C)(C)CCS3)nc1
4.9

Which nuclear beta-catenin stimulation is reported for this compound? O=C1OC(CN2CCOCC2)CN1/N=C/c1ccc([N+](=O)[O-])o1 (stereo not drawn)
3.6

Please look up its nuclear beta-catenin stimulation: C#C[C@]1(OC(C)=O)CC[C@H]2[C@@H]3CCC4=C[C@@H](OC(C)=O)CC[C@@H]4[C@H]3CC[C@@]21C
2.1

----------
# assay comment: differential killing of epithelial or mesenchymal cells, primary screen, imaging, PC-3E GFP, TEM4-18 mCherry, co-culture (AID 1345086);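 further: cells exposed to compound for 72 h before imaging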
# experimental conditions: imaging cell counts, measured here: mesenchymal TEM4-18 mCherry cell survival, at 1 µM
attribute measured: normalised cell number
Please reply with the number alone, leaving off any unit.

N[C@@H](C(=O)O)[C@@H](O)[C@H](O)[C@H](O)CO = 1.18
N=C(N=C(N)N)N1CCOCC1 = 0.86
NCCNCCNCCN = 0.88
CN(N=O)C(=O)N[C@@H]1[C@@H](O)[C@H](O)[C@@H](CO)O[C@@H]1O = 1.08
CC(C)Cn1cnc2c(N)nc3ccccc3c21 = 1.48
COc1ccc(-c2coc3cc(O)ccc3c2=O)cc1 = 1.14
CC(C)(C(=O)O)c1ccc(C(O)CCCN2CCC(C(O)(c3ccccc3)c3ccccc3)CC2)cc1 (stereo not given) = 1.05
Cn1c(=O)[nH]c(=O)c2[nH]cnc21 = 1.13
CCc1ccc(CCOc2ccc(CC3SC(=O)NC3=O)cc2)nc1 (stereo not given) = 1.27

# input for lookup
Sample O=c1ccc2cc(O)c(O)cc2o1 — what was its normalised cell number?
1.02

----------
List of GLP1 secretion stimulation values.
# assay comment: glucagon-like peptide 1 release enhancers, primary assay, NCI-H716 cell line, NPC library (AID 1117341)
# experimental conditions: NCI-H716 cells, at 10 µM, stronger effect = higher value
Report the figure in % without appending any unit label.

// solved cases for GLP1 secretion stimulation follow
Cc1c(F)c(N2CCNC(C)C2)cc2c1c(=O)c(C(=O)O)cn2C1CC1 (stereo not drawn) = -0.4
CC(O)CN(CCN(CC(C)O)CC(C)O)CC(C)O (stereo not drawn) = -4.1
CCc1cc(Cl)c(OC)c(C(=O)NC[C@@H]2CCCN2CC)c1O = 5.8
C=CCc1cc(OC)c(O)c(C(=O)NCCO)c1 = 0.4
C[C@@H](c1ncncc1F)C(O)(Cn1cncn1)c1ccc(F)cc1F (stereo partly drawn) = -0.7

Entry NC(CO)(CO)CO : reported GLP1 secretion stimulation = ?
3.3

Could you share which GLP1 secretion stimulation value was measured for CC[N+](CC)(CC(=O)Nc1c(C)cccc1C)Cc1ccccc1 ?
1.3

# GLP1 secretion stimulation lookup, item NC(=O)c1cc[n+](CC2=C(C(=O)[O-])N3C(=O)[C@@H](NC(=O)Cc4cccs4)[C@H]3SC2)cc1
0.9

Entry under review: O=S(=O)(O)NC1CCCCC1 . Reported GLP1 secretion stimulation?
-0.8

Form field: reported GLP1 secretion stimulation of COCCCN1CCC(NC(=O)c2cc(Cl)c(N)c3c2OCC3)CC1
1.9

Please look up its GLP1 secretion stimulation: CN1C[C@@H]2C[C@H]1CN2c1cc2c(cc1F)c(=O)c(C(=O)O)cn2C1CC1
-0.3

Any idea what its GLP1 secretion stimulation is? The compound is c1cc(CN2CCCCC2)cc(OCCCNc2nc3ccccc3s2)c1
0.5

Could you share which GLP1 secretion stimulation value was measured for CCCCC(CC)COc1ccc(-c2nc(-c3ccc(OC)cc3)nc(-c3ccc(OCC(CC)CCCC)cc3O)n2)c(O)c1 (stereo not drawn) ?
-2.3

----------
Listed here are compounds together with their documented z-score.
# assay comment: survival rescue of mitochondrial mutant cells in low glucose, primary screen, MELAS cybrids, Rieske KO mouse fibroblasts, CellTiter-Glo (AID 1508586);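 further: z relative to plate mean and SD of compound and empty wells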
# experimental conditions: Rieske KO mouse fibroblast survival, CellTiter-Glo 72 h
Where a SMILES comes first, the peptide text is derived from it. [ ]: non-standard residue; d: D form. The star is where a group is joined. Sta = CC(C)C[C@H](N)[C@@H](O)CC(=O)O; Isovaleryl = CC(C)CC(=O)*
Reply briefly: the number, and no unit.

Past entries and their recorded results:
C[C@]12CC[C@H]3C(=CCc4cc(O)ccc43)[C@@H]1CCC2=O = 0.488
C#CC1(O)CC[C@H]2[C@@H]3CCC4=CCCC[C@@H]4[C@H]3CC[C@@]21C (stereo not given in full) = 0.485
COc1c(C)c2c(c(O)c1C/C=C(\C)CCC(=O)O)C(=O)OC2 = 2.98
CN1C(CCl)Nc2cc(Cl)c(S(N)(=O)=O)cc2S1(=O)=O (stereo not given) = -0.124
CC(C(=O)O)c1ccc(N2Cc3ccccc3C2=O)cc1 (stereo not given) = -0.221

For the compound C[C@@H](NCCCc1cccc(C(F)(F)F)c1)c1cccc2ccccc12 , what z-score is on record?
0.442

Please report the recorded z-score for OCC(O)C(O)C(O)CO (stereo not given) .
0.446

Report z-score for CC(C)CC(=O)N[C@H](C(=O)N[C@H](C(=O)N[C@@H](CC(C)C)[C@@H](O)CC(=O)N[C@@H](C)C(=O)N[C@@H](CC(C)C)[C@@H](O)CC(=O)O)C(C)C)C(C)C (Isovaleryl-VV[Sta]A[Sta]-OH) please.
-0.328

Which z-score value is on record for CC(C(=O)O)c1ccc(C(=O)c2ccccc2)s1 (stereo not given) ?
-0.23

Would you kindly share the measured z-score for CCOC(=O)c1cnc2c(cnn2CC)c1NN=C(C)C ?
2.39

For CN(N=O)C(=O)NC1C(O)OC(CO)C(O)C1O (stereo not given) , what is its reported z-score?
0.645

Need z-score of CC(CN(C)C)C(C)(O)Cc1ccc(Cl)cc1 (stereo not given) , thanks.
-0.0123

// returns reported z-score for input CN=C(NC#N)NCCSCc1csc(N=C(N)N)n1
-0.51

Could you tell me which z-score is on file for CCCCCCCCCCCCCCCCO ?
-0.121

// returns reported z-score for input Cc1ccc(Nc2c(F)cccc2Cl)c(CC(=O)O)c1
0.00857

Give the measured z-score of C[N+]1(C)CCCC(OC(=O)C(O)(c2ccccc2)c2ccccc2)C1 (stereo not given) .
0.26

Would you kindly share the measured z-score for CNC1CCCN(c2c(F)cc3c(=O)c(C(=O)O)cn(C4CC4)c3c2OC)C1 (stereo not given) ?
0.59

Requested field: z-score. Item: COc1cc(C)c(C=CC(C)=CC=CC(C)=CC(=O)O)c(C)c1C
0.793

I would be grateful if you could share the reported z-score for CC(=O)OCC(=O)[C@@]1(OC(C)=O)[C@@H](C)C[C@H]2[C@@H]3C[C@H](F)C4=CC(=O)C=C[C@]4(C)[C@@]3(F)[C@@H](O)C[C@@]21C .
-0.0519

Can you share its z-score? I mean this compound: CC(CN(C)C)CN1c2ccccc2Sc2ccccc21 (stereo not given)
-0.196

Record request: z-score value, item CCOC(=O)c1ccc(C#Cc2ccc3c(c2)C(C)(C)CCS3)nc1
0.684

Bench note: what z-score did COc1ccc(-c2coc3cc(O)ccc3c2=O)cc1 show?
0.38

Value lookup for z-score; key = CCN[C@H]1CN(CCCOC)S(=O)(=O)c2sc(S(N)(=O)=O)cc21
0.0327

Item CN1[C@@H]2CC[C@H]1CC(OC(=O)[C@H](CO)c1ccccc1)C2 (stereo not given in full) has what recorded z-score?
-0.351

Could you share which z-score value was measured for O=C(O)Cc1ccc(-c2ccccc2)cc1 ?
-0.122

Quick check: z-score of Clc1cc(Cl)c(OCC#CI)cc1Cl ?
8.41
